Target: human alpha 7-wt nAChR (Homo sapiens, UniProt P36544)
Construct: expressed in transfected cells
Sequence (P36544 23-502): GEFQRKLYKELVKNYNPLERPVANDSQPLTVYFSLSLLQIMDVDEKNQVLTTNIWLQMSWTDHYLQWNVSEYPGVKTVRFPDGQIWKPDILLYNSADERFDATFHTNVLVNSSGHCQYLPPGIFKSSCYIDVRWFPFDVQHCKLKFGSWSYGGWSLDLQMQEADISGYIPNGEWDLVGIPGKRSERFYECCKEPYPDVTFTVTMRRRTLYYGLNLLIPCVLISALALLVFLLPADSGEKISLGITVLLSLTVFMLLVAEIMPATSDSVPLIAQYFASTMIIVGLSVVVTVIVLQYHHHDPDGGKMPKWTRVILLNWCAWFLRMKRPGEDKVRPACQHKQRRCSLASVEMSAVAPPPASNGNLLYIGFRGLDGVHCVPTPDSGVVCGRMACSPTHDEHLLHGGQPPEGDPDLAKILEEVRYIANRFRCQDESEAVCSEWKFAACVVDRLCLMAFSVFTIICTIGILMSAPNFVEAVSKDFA
Assay: Ca2+ flux imaging (FDSS) (Protocol B)
Format: cell-based
Conditions: potentiation of 100 μM choline; compounds 0.01 μM to 30 μM; read-out: a7-PAM-G_[33]_pEC50 pEC50 (converted)
Procedure: Ca^2+ Flux Imaging (FDSS) (Protocol B) […] PAM activity was detected in real time by applying the compounds to be tested to the loaded cells along with an alpha 7 nicotinic receptor agonist during constant monitoring of cellular fluorescence in a FDSS. […] A control response to choline was calculated on each plate from the difference in peak in fluorescence in wells receiving either choline or assay buffer alone. […]
MEASURE: EC50 (nM)

Example entries begin here.
molecule=Cc1cc(-c2sc(N3C[C@@H](C(F)(F)F)O[C@@H](C)C3)nc2CNC(=O)CC2CC2)cc(C)n1 numeric_result=31.6
molecule="Cc1cc(C(=O)NCc2nc(N3CCOC(C)C3)sc2-c2cc(C)nc(C)c2)on1 (single isomer, unassigned)" numeric_result=2000
molecule=Cc1cc(-c2sc(N3C[C@@H](C)O[C@@H](C)C3)nc2CNC(=O)c2sccc2C)cc(C)n1 numeric_result=427

a. Cc1cc(-c2sc(N3CCOC(C)C3)nc2CNC(=O)C(C)C)cc(C)n1 (single isomer, unassigned) [Compound 71]
b. Cc1cc(-c2sc(N3C[C@@H](C)O[C@@H](C)C3)nc2CNC(=O)C2CCCC2)cc(C)n1
Which of these two has the smaller recorded EC50: a or b ? Return value: the label identifying the chosen record.
b

I. Cc1cc(-c2sc(N3C[C@@H](C)O[C@@H](C)C3)nc2CNC(=O)C2CCCC2)c(C)cn1
II. Cc1cc(-c2sc(N3CCOCC3)nc2CNC(=O)c2cc(C)on2)cc(C)n1
III. Cc1cc(-c2sc(N3C[C@@H](C)O[C@@H](C)C3)nc2CNC(=O)c2cccc(Cl)c2)ccn1
Order the items by recorded EC50; the first position goes to the largest value. Return the labels ranked in the requested order, please.
II, I, III

* * *

target: human alpha 7-wt nAChR (Homo sapiens, UniProt P36544); construct: expressed in transfected cells; test: Ca2+ flux imaging (FDSS) (Protocol B); assay type: cell-based; conditions: efficacy of 100 μM choline defined as 100% in the absence of a PAM; read-out: a7-PAM-G_[33]_Eff_Curve_FI % Efficacy
MEASURE: Emax (%)

compound_smiles=Cc1cc(-c2sc(N3CCOCC3)nc2CNC(=O)c2ccc(F)cc2C)cc(C)n1 measure=Emax numeric_result=902
compound_smiles=COc1cccc(C(=O)NCc2nc(N3C[C@@H](C)O[C@@H](C)C3)sc2-c2cc(C)nc(C)c2)n1 measure=Emax numeric_result=451
compound_smiles=Cc1cc(-c2sc(N3C[C@@H](C)O[C@@H](C)C3)nc2CNC(=O)c2ccc(F)c(F)c2F)cc(C)n1 measure=Emax numeric_result=787
compound_smiles=Cc1cc(-c2sc(N3C[C@@H](C)O[C@@H](C)C3)nc2CNC(=O)c2conc2C)cc(C2CC2)n1 measure=Emax numeric_result=650
compound_smiles=COc1ccc(C(=O)NCc2nc(N3C[C@@H](C)O[C@@H](C)C3)sc2-c2cc(C)nc(C)c2)cc1 measure=Emax numeric_result=551

I. COc1nc(C)c(C(=O)NCc2nc(N3C[C@@H](C)O[C@@H](C)C3)sc2-c2cc(C)nc(C)c2)s1
II. Cc1cc(-c2sc(N3C[C@@H](C)O[C@@H](C)C3)nc2CNC(=O)c2ccccc2Cl)cc(C)n1
Which of these two has the smaller recorded Emax: I or II ? Return value: the label identifying the chosen record.
II
(II: 568%, I: 951%)

Numbers sourced from patent US8637510B2.
